STUDY_TARGET: T1, human cloned SST-R2 (human, UniProt P30874 1-369)
T1 construct: whole, on cells; Assayed as membrane preparations of CHO cells expressing the cloned receptor, not as intact cells; also called hSST-R2; human SST-R2
T1 sequence (P30874 whole entry): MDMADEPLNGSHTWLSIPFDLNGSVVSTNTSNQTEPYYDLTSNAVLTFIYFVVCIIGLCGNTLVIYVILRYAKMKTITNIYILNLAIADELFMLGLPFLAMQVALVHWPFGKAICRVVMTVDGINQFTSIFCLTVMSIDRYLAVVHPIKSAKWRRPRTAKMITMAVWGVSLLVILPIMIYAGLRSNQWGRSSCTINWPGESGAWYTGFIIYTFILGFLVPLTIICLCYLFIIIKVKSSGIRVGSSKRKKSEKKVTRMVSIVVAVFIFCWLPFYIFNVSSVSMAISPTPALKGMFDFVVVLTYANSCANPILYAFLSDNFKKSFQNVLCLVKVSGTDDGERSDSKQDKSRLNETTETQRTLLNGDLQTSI
PROTOCOL_TEXT: inhibition of 125I-Tyr11-SRIF-14 binding to membranes of CHO cells expressing cloned human SST-R2
pIC50 reference
Please keep in mind that pIC50 is minus log10 of the molar concentration; only the number is needed.

BINDER	pIC50
CXFWWKTFG (not fully specified; D-Cys at 1; GABA at 2 (written X); D-Trp at 5; GlyN6 building unit at 9 with D-Cys on its omega-amine; C-terminal amide; ReO (oxorhenium(V)) chelated by the two Cys closes the ring) [ReO-GF-4]	7.92

Now, please, on to the next binder.
Identify the reported pIC50 for the following entry. CXFWWKTFG (L-Cys at 1; GABA at 2 (written X); D-Trp at 5; GlyN6 building unit at 9 with L-Cys on its omega-amine; C-terminal amide; ReO (oxorhenium(V)) chelated by the two Cys closes the ring) [ReO-GF-1]
7.80
